- Tested on: human breast cancer MDA-MB-231 cells (MDA-MB)
- Assay summary: Anti-proliferation (total cell counts) in bellows cell culture system with pharmacodynamic modeling
- Assay type: cell-based
- Condition parameters: Homo sapiens; MDA-MB 231; study 1, sparse sampling, data pooled from two studies; read-out: IC50k (effect on rate of growth)
Assay readout: IC50 (nM)
Numeric answer only, unit nM assumed.

Data request: Could you tell me which IC50 is on file for "O=C(O)Cc1cc(I)c(Oc2cc(I)c(O)c(I)c2)c(I)c1" ?
Data returned: 7.6
